Reference source: patent US20080255192A1

TARGET: P-selectin/PSGL-1 interaction (Homo sapiens, UniProt P16109)
Construct: comprised of the lectin and epidermal growth factor-like (EGF) domains expressed in CHO cells; made in house; host or cells: CHO cells (P-LE)
Sequence (P16109 42-198): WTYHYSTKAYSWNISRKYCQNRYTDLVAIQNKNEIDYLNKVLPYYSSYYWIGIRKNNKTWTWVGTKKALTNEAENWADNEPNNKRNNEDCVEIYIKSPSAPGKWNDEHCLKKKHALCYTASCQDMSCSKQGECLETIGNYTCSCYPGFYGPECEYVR
PROCEDURE TEXT: Biacore P-Selectin/PSGL-1 Inhibition Assay (surface plasmon resonance)
Type: binding
EXPERIMENTAL PARAMETERS: 250 uM test compound, 500 nM P.LE, immobilized PSGL-1 19ek, 10% DMSO, pH 7.4
Method: Surface plasmon resonance assays were performed on a Biacore 3000 instrument (Biacore Inc. Piscataway, N.J.) at 25° C. at a flow rate of 30 μL/minute and each assay consisted of a 60-second equilibration, a 60-μL sample injection (kinject), and a 300-second dissociation. […]
inhibition at 250 µM listing for selected molecules.
OBSERVATION TYPE: inhibition at 250 µM (%)

[
  {
    "MOLECULE": "Cc1ccc2c(C(=O)O)c(O)c(C(C)Cc3ccccc3)nc2c1C (stereo not drawn)",
    "INEQUALITY OPERATOR": "=",
    "VALUE": 49
  },
  {
    "MOLECULE": "CC(C)C(c1ccccc1)c1nc2c(C(F)(F)F)cccc2c(C(=O)O)c1O (stereo not drawn)",
    "INEQUALITY OPERATOR": "=",
    "VALUE": 60
  },
  {
    "MOLECULE": "O=C(O)c1c(O)c(C2(c3ccc(F)cc3)CC2)nc2ccc(Cl)cc12",
    "INEQUALITY OPERATOR": "≤",
    "VALUE": 10
  },
  {
    "MOLECULE": "Cc1cccc2c(C(=O)O)c(O)c(C3(c4ccc(F)cc4)CC3)nc12",
    "INEQUALITY OPERATOR": "=",
    "VALUE": 10
  },
  {
    "MOLECULE": "COc1ccc(C2(c3nc4c(C(F)(F)F)cccc4c(C(=O)O)c3O)CC2)cc1",
    "INEQUALITY OPERATOR": "=",
    "VALUE": 36
  },
  {
    "MOLECULE": "O=C(O)c1c(O)c(C2(c3ccc(F)cc3)CC2)nc2cc(Cl)ccc12",
    "INEQUALITY OPERATOR": "≤",
    "VALUE": 10
  },
  {
    "MOLECULE": "CCc1ccc2c(C(=O)O)c(O)c(C3(c4ccc(C(F)(F)F)cc4)CC3)nc2c1",
    "INEQUALITY OPERATOR": "=",
    "VALUE": 10
  },
  {
    "MOLECULE": "O=C(O)c1c(O)c(C2(c3ccccc3)CC2)nc2ccc(C(O)(C(F)(F)F)C(F)(F)F)cc12",
    "INEQUALITY OPERATOR": "≤",
    "VALUE": 10
  },
  {
    "MOLECULE": "O=C(O)c1c(O)c(C2(c3ccc(Cl)cc3)CC2)nc2c(Cl)cccc12",
    "INEQUALITY OPERATOR": "=",
    "VALUE": 93
  }
]
